# targetOrTestSystem: human PD-L1 expressed on cell surface (human, UniProt Q9NZQ7 19-290)
# Sequence (Q9NZQ7 19-290 limits assumed): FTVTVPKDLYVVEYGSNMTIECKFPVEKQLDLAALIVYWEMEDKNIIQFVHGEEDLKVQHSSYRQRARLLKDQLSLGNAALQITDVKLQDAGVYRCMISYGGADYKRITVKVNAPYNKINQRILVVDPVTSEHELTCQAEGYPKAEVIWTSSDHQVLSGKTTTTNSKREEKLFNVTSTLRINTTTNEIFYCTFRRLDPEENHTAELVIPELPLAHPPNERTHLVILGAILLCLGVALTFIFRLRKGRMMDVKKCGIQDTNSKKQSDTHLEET
# methodNotes: cell-based or functional assay
Internalization (%), FACS, 0.5 µg/ml, 2 h: recorded values
Hi! Could you send only the number? It should be in %, unit omitted.

Worked examples follow.
# binder, valueUnits, reportedResult
rows = [
    ("74A9 (antibody, human IgG1, V domains shown) VH: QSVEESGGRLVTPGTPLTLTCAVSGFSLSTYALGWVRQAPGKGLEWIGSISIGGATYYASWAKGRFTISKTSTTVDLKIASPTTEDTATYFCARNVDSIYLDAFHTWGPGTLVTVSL VL: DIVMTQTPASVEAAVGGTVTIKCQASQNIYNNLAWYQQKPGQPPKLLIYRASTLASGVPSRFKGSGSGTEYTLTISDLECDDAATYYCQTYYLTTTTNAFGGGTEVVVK", "%", 13.2),
    ("56H3 (antibody, human IgG1, V domains shown) VH: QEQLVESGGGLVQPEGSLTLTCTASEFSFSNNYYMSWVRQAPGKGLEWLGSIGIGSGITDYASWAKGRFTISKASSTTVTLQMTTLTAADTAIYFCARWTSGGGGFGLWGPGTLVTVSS VL: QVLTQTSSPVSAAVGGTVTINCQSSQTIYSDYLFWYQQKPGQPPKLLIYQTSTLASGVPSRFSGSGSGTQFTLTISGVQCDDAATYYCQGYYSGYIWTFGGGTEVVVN", "%", 16.1),
    ("62E6 (antibody, human IgG1, V domains shown) VH: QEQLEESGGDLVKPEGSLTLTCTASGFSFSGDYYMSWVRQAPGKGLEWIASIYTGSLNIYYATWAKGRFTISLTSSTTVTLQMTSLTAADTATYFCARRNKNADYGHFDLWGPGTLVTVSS VL: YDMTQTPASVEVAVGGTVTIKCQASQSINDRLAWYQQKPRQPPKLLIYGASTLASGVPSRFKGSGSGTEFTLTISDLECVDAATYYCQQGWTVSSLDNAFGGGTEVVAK", "%", 12.2),
    ("57B10 (antibody, human IgG1, V domains shown) VH: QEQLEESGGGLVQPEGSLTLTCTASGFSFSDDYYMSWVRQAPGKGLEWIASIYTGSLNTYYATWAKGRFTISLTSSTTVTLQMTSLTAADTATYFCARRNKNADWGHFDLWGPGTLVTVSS VL: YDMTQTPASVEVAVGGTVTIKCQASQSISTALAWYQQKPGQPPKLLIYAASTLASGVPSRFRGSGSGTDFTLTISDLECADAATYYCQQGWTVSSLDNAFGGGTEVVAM", "%", 11.1),
]

Reported Internalization (%), FACS, 0.5 µg/ml, 2 h for 55H3/76D6 (antibody, human IgG1, V domains shown) VH: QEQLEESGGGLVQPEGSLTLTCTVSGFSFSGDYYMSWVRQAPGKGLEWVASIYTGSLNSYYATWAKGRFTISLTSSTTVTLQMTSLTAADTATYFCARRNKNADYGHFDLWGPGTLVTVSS VL: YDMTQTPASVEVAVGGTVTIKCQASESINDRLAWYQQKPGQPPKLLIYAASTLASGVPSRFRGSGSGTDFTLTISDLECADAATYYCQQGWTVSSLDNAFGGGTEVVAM was 20.8

Recorded values, source patent US20250171542A1.
